Every entry's value here was drawn from patent US20160176867A1.

Provide the reported IC50 of each item.
experimentalSystem: BRD4 bromo domain 2 [BRD4(2)] (Homo sapiens)
Construct: N-terminally His6-tagged BRD4(2) (amino acids 357-445)
procedureDetails: BRD4/acetylated peptide H4 binding assay (TR-FRET), BRD4 bromo domain 2
particulars: inhibition of BRD4(2)/Ac-H4 peptide interaction
// note: answer is a bare numeric in nM

Return reported IC50. Input molecule: `C[C@@H]1C(=O)N(C)c2ccc(Nc3cccc(S(=O)(=O)N(C)C)c3)cc2N1C1CCN(C(=O)OC(C)(C)C)CC1`
76

Return reported IC50. Input molecule: `COc1ccc(S(=O)(=O)N2CCOCC2)cc1Nc1ccc2c(n1)N(C1CCN(C)CC1)[C@H](C)C(=O)N2C`
56

Return reported IC50. Input molecule: `C[C@@H]1C(=O)N(C)c2ccc(Nc3ccc4c(c3)S(=O)(=O)NC4)nc2N1C1CCOCC1`
77

Return reported IC50. Input molecule: `C[C@@H]1C(=O)N(C)c2ccc(Nc3cccc(S(=O)(=O)N4CCOCC4)c3)cc2N1C1CCOCC1`
89

Return reported IC50. Input molecule: `C[C@@H]1C(=O)N(C)c2ccc(Nc3cccc(C(=O)N4CCN(C)CC4)c3)nc2N1C1CCN(C(=O)OC(C)(C)C)CC1`
157

Return reported IC50. Input molecule: `C[C@@H]1C(=O)N(C)c2ccc(Nc3cccc(S(=O)(=O)N4CCN(C)CC4)c3)cc2N1C1CCOCC1`
315

Return reported IC50. Input molecule: `C[C@@H]1C(=O)N(C)c2ccc(Nc3cccc(C(=O)N[C@H]4CC[C@H](N5CCN(CC6CC6)CC5)CC4)c3)cc2N1C1CCOCC1`
520
